Values compiled from patent US8278301B2.

biological target: human 5-HT3 receptor (Homo sapiens); test: Compound affinity for the human 5-HT3 receptor (Assay B), SPA radioligand binding with [9-methyl-3H]BRL-43694; design: purchased Perkin Elmer; details: Assay B; SPA, [9-methyl-3H]BRL-43694; Cheng-Prusoff; read-out: Human 5HT3 Ki
Sequence (P46098 24-478): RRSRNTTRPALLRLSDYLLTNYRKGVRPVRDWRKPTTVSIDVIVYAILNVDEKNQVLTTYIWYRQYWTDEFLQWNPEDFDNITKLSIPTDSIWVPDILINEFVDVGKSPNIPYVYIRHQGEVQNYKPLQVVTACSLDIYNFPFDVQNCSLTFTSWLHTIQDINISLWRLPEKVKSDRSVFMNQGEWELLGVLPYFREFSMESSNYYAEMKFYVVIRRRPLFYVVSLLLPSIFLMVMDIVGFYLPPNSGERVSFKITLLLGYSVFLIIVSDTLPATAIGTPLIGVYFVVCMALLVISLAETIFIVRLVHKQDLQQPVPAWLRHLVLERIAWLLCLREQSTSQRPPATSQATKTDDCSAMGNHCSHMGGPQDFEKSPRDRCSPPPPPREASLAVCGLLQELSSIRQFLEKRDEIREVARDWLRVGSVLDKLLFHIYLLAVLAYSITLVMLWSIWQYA
Where a name gives a salt, the structure may show the parent alone.
Hi there, I'd appreciate the recorded Ki for every entry that follows.
Write the number in nM without appending the unit.

Record CC(=O)N1CCC(c2nc3c(C(=O)N[C@@H]4CN5CCC4CC5)cccc3o2)CC1 [Example 31, Hydrochloride] , field Ki: 356

Query CCN(CC)Cc1nc2c(C(=O)NC3CN4CCC3CC4)cccc2o1 (stereo not drawn) [Example 40, Hydrochloride] yields Ki of 129

Ki for O=C(N[C@@H]1CN2CCC1CC2)c1cccc2oc(C3CCOCC3)nc12 [Example 25, Hydrochloride] is 126

Input O=C(N[C@@H]1CN2CCC1CC2)c1cccc2oc(C3CCNCC3)nc12 [Example 28, Dihydrochloride] . Output Ki: 111

Measured Ki of CN1[C@@H]2CCC[C@H]1C[C@@H](NC(=O)c1cccc3oc(C45CCN(CC4)CC5)nc13)C2 [Example 26, Dihydrochloride] : 173

Measured Ki of CN1[C@@H]2CCC[C@H]1C[C@@H](NC(=O)c1cccc3nc(C(C)(C)C)oc13)C2 [Example 37, Hydrochloride] : 166
